Recorded IC50 by entry
Biological target: Cytochrome P450 1A2 (Homo sapiens, UniProt P05177)
Sequence (P05177 whole entry): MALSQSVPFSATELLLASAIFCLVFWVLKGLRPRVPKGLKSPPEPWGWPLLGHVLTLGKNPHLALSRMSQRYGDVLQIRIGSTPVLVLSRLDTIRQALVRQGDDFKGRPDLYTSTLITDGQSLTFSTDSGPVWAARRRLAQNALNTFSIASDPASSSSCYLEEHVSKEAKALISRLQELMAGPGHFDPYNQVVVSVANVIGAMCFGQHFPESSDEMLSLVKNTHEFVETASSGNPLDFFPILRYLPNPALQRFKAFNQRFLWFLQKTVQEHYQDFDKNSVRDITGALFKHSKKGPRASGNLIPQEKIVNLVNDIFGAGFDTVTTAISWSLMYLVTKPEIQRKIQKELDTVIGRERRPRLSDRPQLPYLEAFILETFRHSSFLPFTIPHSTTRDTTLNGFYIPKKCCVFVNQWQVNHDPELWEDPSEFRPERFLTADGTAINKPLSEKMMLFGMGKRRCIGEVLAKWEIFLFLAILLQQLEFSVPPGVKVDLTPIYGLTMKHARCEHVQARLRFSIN
Experiment: Inhibition of recombinant human CYP1A2 using luciferin-ME as substrate preincubated for 10 mins followed by NADPH addition and measured after 10 to 30 mins by P450-Glo assay

{"chemical.smiles": "c1ccc2nc(-c3ccnc4ccccc34)ncc2c1", "IC50 [nM]": 960}
{"chemical.smiles": "O=[N+]([O-])c1cccc(-c2ncc3ccccc3n2)c1", "IC50 [nM]": 1200}
{"chemical.smiles": "CN(C)c1ccc(-c2ncc3ccccc3n2)cc1", "IC50 [nM]": 4200}

From: ChEMBL document CHEMBL4602628
